# System under test: T1, human TIM-3 protein on human PBMC (human, UniProt Q8TDQ0 22-301)
# T1 sequence: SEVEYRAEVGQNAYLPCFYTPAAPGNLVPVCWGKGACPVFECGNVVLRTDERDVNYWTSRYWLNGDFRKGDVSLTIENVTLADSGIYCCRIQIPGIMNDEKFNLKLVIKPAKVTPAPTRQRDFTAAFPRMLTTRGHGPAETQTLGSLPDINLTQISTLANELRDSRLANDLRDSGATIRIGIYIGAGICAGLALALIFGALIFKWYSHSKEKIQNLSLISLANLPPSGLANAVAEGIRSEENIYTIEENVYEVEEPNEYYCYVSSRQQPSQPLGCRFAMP
# Assay name: cell-based or functional assay
Here, each record is paired with measured IFN-γ production, lymphocyte activation assay (donor Y), antibody 0.1 µg/ml, N = 2 data.
Measurement name: IFN-γ production, lymphocyte activation assay (donor Y), antibody 0.1 µg/ml, N = 2 (pg/mL)

INSERT INTO results (binder, value_reported) VALUES
  ('fully human TIM-3 antibody 134H3G6 (antibody, human IgG4, V domains shown, also called antibody number 3) VH: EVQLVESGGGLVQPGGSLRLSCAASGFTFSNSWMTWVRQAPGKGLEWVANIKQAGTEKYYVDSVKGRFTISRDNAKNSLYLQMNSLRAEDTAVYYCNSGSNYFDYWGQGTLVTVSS VL: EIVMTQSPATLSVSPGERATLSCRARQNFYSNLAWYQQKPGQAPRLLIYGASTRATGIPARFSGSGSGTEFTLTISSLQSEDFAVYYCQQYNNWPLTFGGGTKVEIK', 2550),
  ('fully human TIM-3 antibody 18D2H2 (antibody, human IgG4, V domains shown, also called antibody number 2) VH: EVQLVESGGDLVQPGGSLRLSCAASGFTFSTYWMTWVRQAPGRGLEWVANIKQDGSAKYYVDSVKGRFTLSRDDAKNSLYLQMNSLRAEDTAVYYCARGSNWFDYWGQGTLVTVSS VL: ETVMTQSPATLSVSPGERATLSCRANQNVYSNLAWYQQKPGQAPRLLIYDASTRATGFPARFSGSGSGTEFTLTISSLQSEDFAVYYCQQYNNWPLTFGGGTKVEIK', 2750),
  ('fully human TIM-3 antibody 57F4E5 (antibody, human IgG4, V domains shown, also called antibody number 7) VH: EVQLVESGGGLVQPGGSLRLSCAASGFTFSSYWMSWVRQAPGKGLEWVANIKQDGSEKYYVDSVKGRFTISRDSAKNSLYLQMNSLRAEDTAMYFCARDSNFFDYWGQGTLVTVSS VL: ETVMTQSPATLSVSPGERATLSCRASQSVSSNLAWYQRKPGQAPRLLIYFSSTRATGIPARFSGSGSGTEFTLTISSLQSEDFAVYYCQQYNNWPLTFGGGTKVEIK', 2870),
  ('fully human TIM-3 antibody 39E5H1 (antibody, human IgG4, V domains shown, also called antibody number 6) VH: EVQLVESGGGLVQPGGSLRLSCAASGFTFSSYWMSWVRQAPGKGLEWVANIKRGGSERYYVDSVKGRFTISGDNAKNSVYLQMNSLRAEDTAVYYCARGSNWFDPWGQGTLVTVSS VL: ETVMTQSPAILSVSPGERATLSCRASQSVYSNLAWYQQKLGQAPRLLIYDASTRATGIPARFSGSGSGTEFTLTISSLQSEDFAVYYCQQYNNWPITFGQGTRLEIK', 2710),
  ('fully human TIM-3 antibody 7A4F10 (antibody, human IgG4, V domains shown, also called antibody number 1) VH: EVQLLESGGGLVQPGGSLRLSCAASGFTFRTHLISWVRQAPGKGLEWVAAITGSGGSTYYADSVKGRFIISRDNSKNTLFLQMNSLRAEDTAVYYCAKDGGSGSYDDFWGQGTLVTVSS VL: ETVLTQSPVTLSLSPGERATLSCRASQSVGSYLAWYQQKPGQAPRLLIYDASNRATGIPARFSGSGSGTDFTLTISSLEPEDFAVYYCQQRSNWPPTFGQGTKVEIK', 3220),
  ('fully human TIM-3 antibody 34B6D8 (antibody, human IgG4, V domains shown, also called antibody number 5) VH: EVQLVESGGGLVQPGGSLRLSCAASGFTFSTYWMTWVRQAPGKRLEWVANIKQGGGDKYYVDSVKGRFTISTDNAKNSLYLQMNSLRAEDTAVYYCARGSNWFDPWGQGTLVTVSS VL: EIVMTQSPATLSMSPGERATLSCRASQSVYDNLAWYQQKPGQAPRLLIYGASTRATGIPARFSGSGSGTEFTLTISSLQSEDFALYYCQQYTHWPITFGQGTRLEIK', 2900);
